Known IC50 of a selection of compounds
- assayed-target: GSK3b (GST-full length GSK3b) (Homo sapiens, UniProt P49841)
- Construct: GST-full length GSK3b: [SignalChem G08-9G]; purchased SignalChem G08-9G
- Sequence (P49841 whole entry): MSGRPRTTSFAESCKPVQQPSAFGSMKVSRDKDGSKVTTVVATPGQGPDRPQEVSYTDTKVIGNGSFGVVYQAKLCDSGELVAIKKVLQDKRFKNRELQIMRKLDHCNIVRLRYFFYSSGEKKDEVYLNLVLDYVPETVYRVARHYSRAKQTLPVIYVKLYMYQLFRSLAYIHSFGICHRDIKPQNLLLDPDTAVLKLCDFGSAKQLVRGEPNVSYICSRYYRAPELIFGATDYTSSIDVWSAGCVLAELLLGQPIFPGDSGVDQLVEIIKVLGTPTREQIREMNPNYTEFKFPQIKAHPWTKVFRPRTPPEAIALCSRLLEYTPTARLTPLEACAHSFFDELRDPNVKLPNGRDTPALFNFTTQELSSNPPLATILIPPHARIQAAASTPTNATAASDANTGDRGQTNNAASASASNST
- method: GSK3b TR-FRET kinase inhibition assay
- Type: biochemical
- particulars: 2 μM ATP; read-out: GSK3β TR-FRET 2 μM ATP GMean IC50

Record excerpt, results attached:
CCC1(c2cccc(-c3cc(C)nn3C)c2)C2=C(CC(C)(C)CC2=O)Nc2ncccc21 (single isomer, unassigned) [Compound 1024B] = 100 to 1000 nM
CC1(C)CC(=O)C2=C(C1)Nc1ncccc1C2c1ccccc1 (stereo not shown) [Compound C1, reference compound] = > 5000 nM

# input Looking for the measured IC50 of CCC1(c2cccc(-c3cn(C)nc3C)c2)C2=C(CC(C)(C)CC2=O)Nc2ncccc21 (single isomer, unassigned) [Compound 1023B] , can you help?
# output 1000 to 5000 nM

# input Please report the recorded IC50 for CCC1(c2cccc(-c3ccnc(C)c3C)c2)C2=C(CC(C)(C)CC2=O)Nc2ncccc21 (single isomer, unassigned) [147 B] .
# output ≤ 100 nM

# input Item CCC1(c2cccc(-c3c(F)cncc3OC)c2)C2=C(CC(C)(C)CC2=O)Nc2ncccc21 (single isomer, unassigned) [Compound 154B] has what recorded IC50?
# output ≤ 100 nM

# input Entry under review: CCC1(c2ccccc2)C2=C(CC(C)(C)CC2=O)Nc2ncc(F)cc21 (single isomer, unassigned) [114 A] . Reported IC50?
# output ≤ 100 nM
